experimentalTarget: human estrogen receptor β (Homo sapiens)
Construct: purchased Panvera
Sequence (Q92731 whole entry): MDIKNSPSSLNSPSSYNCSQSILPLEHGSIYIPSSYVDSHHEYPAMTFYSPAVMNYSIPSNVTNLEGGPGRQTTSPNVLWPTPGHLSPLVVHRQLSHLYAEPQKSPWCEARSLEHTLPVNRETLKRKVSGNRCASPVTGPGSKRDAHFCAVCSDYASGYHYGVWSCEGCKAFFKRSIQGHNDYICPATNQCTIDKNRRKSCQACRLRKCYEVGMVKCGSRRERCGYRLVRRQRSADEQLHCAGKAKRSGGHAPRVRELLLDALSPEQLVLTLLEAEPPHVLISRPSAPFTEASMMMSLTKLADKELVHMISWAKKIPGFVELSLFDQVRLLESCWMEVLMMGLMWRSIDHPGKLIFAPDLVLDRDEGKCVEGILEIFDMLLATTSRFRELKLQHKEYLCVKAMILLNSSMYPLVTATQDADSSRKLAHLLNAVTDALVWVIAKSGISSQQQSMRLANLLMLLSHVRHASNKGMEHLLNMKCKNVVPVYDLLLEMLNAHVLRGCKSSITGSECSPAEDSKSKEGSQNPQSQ
assayMethodText: Estrogen Receptor β Fluorescence Polarization Assay (Fluormone ES2 displacement)
Type: binding
testSettings: read-out: ERβ at 1 µM % Inhibition
Assignment: determine reported inhibition at 1 µM for the given molecules.
Give bare numbers, in %.

Answered cases to consult:
molecule | inhibition at 1 µM [%]
C[C@]12CCC3c4cc5ccn(S(C)(=O)=O)c5cc4CCC3C1CC[C@@H]2O (some centres unmarked) | 14
C[C@]12CCC3c4ccc5c(ccn5S(C)(=O)=O)c4CCC3C1CCC2=O (some centres unmarked) | 27
C[C@]12CCC3c4cc5ccn(S(C)(=O)=O)c5cc4CCC3C1CCC2=O (some centres unmarked) | 6.2

Report inhibition at 1 µM for every entry below.
1. CSc1c[nH]c2ccc3c(c12)CCC1C3CC[C@]2(C)C(=O)CCC12 (some centres unmarked)
2. CCCCC(=O)O[C@H]1CCC2C3CCc4cc5[nH]ccc5cc4C3CC[C@@]21C (some centres unmarked)

A:
1: 66; 2: 96
